This section presents compounds with their documented Km values.
- System: Enterobacter cloacae
- PROCEDURE TEXT: Activity of Enterobacter cloacae beta-lactamase OXA-1
MEASUREMENT LABEL: Km (µM)

- CC(=O)OCC1=C(C(=O)O)N2C(=O)[C@@H](NC(=O)Cc3cccs3)[C@H]2SC1: 13.9
- CC(=O)OCC1=C(C(=O)O)N2C(=O)[C@@H](NC=O)[C@H]2SC1: 323
- CC(=O)OCC1=C(C(=O)O)N2C(=O)[C@@H](N(O)C(=O)Cc3ccccc3)[C@H]2SC1: 60

###

Entries annotated with measured Km
- Tested on: Enterobacter cloacae
- PROCEDURE TEXT: Activity of Enterobacter cloacae beta-lactamase OXA-1
MEASUREMENT LABEL: Km

- CC(=O)OCC1=C(C(=O)O)N2C(=O)/C(=N/O)[C@H]2S(=O)(=O)C1: > 400 µM
- CC(=O)OCC1=C(C(=O)O)N2C(=O)[C@@H](N(O)C=O)[C@H]2SC1: > 400 µM
- CC(=O)OCC1=C(C(=O)O)N2C(=O)/C(=N/O)[C@H]2SC1: > 400 µM
- CC(=O)OCC1=C(C(=O)O)N2C(=O)[C@@H](NO)[C@H]2SC1: > 400 µM
